Molecular target: A-431 cell EGF receptor (Homo sapiens)
Construct: intact A-431 cell membranes were employed, rather than solubilized extracts; endogenous in cells; host or cells: A-431 human epidermoid carcinoma cells (plasma membranes)
Sequence (P00533 25-1210): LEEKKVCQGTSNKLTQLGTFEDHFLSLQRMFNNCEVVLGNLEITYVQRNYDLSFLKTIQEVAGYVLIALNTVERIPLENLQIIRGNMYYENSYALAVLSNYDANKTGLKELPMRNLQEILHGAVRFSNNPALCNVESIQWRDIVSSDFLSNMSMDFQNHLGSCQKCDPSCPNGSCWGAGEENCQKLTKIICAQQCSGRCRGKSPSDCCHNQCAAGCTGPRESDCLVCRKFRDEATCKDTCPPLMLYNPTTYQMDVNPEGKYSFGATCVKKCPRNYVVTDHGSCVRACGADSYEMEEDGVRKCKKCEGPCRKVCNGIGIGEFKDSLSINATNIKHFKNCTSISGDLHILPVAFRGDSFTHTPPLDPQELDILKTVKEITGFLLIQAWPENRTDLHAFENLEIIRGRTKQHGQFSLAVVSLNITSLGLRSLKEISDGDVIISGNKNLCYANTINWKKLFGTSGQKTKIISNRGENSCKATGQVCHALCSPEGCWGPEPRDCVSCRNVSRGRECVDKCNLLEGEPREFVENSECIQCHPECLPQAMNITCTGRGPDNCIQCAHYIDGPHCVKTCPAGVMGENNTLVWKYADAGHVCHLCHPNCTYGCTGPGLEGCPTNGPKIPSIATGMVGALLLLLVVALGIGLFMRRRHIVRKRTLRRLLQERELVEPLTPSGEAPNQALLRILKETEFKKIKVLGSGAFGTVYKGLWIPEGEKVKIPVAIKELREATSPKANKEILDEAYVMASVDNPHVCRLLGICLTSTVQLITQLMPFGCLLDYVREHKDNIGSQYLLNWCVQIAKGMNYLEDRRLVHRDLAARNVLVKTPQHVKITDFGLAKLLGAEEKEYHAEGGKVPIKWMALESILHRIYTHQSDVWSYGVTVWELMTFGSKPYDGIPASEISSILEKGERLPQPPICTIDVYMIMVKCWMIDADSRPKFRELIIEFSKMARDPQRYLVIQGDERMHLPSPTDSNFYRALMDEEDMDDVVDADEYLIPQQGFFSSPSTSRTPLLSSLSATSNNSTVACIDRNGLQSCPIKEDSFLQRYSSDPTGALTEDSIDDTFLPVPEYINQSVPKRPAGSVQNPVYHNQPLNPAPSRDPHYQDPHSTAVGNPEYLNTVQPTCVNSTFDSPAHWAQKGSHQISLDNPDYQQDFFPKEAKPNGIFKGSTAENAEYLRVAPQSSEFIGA
Experiment: Protein phosphorylation of A-431 cell membrane EGF receptors (intact membranes, EGF present)
Format: biochemical
Details: 600 nmoles/mg protein, intact A-431 membranes
Peptide text beside a SMILES is read from it. * marks the point of attachment. Cbz = O=C(OCc1ccccc1)*; CH2Cl = ClC*
recorded metric: % inhibition (%)

Known % inhibition results, listed for orientation:
C[C@H](NC(=O)CNC(=O)[C@H](Cc1ccccc1)NC(=O)OCc1ccccc1)C(=O)N[C@@H](Cc1ccc(O)cc1)C(=O)CCl [Z--Phe-Gly-Ala-TyrCH2 Cl, Z-Phe-Gly-Ala-TyrCH2 Cl] (Cbz-FGAY-CH2Cl) | 67
CC(C)CC(NC(=O)OC(C)(C)C)C(=O)CBr (stereo not shown) | 29

1. CC(C)C[C@H](NC(=O)OC(C)(C)C)C(=O)CCl
2. CC(C)C[C@H](NC(=O)[C@H](CO)NC(=O)CNC(=O)[C@H](Cc1ccccc1)NC(=O)OCc1ccccc1)C(=O)CCl [Z--Phe-Gly-Ser-LeuCH2 Cl, Z-Phe-Gly-Ser-LeuCH2 Cl] (Cbz-FGSL-CH2Cl)
Between these two entries, 1 and 2 , state which has the higher % inhibition. Record your answer as the label of the chosen record. 2

Data credit: patent US4582821A
